B1: HDV Ribozyme (parent)
chain: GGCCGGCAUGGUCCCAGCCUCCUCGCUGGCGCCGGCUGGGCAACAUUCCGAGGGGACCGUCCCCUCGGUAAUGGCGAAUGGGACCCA

- Variants of: B1
- MEASUREMENT_PROTOCOL: self-cleavage, relative activity (ratio to wild type); higher = more cleavage; co-transcriptional
Quick reference for self-cleavage among some variants
A bare number is all that is needed in reply.

U23G G25C
0

Prompt: Would you mind telling me what self-cleavage value was observed for G10U G34C ?
Completion: 0.189

Prompt: Would you mind telling me what self-cleavage value was observed for U37A C41U ?
Completion: 0.403

Prompt: Would you mind telling me what self-cleavage value was observed for C13U A45U ?
Completion: 0.198
